Experimental details: Pharmacokinetic evaluation in SD rat (intravenous)
Format: in vivo
Condition notes: male, plasma, about 0.5 mg/kg
Parameter measured: Vd (L/kg)
Write the value in L/kg as a bare number.

Task: Please look at this compound and report its Vd: CO[C@@H]1C[C@@H](CO)OC[C@@H]1Nc1ncnc2[nH]cc(C(=O)c3ccc(Oc4ccccc4)cc3Cl)c12
Result: 1.42

----------
Experimental details: Plasma protein binding (PPB) assay, C
Type: in vitro ADME
Condition notes: cynomolgus monkey, dialysis 4 hr 37° C.
Parameter measured: fraction unbound at 4 h, 2 μM
Write no unit; give the number alone.

Task: Please look at this compound and report its fraction unbound at 4 h, 2 μM: CO[C@@H]1C[C@@H](CO)OC[C@@H]1Nc1ncnc2[nH]cc(C(=O)c3ccc(Oc4ccccc4)cc3Cl)c12
Result: 0.001
